Each item that follows carries a reported Zeta-Potential / mV.
- Test description: Zeta-potential measurement (dynamic light scattering)
- Type: physicochemical
Where a SMILES comes first, the peptide text is derived from it. The star is where a group is joined. Palmitoyl = CCCCCCCCCCCCCCCC(=O)*

Molecule	Zeta-Potential / mV, mV
CCCCCCCCCCCCCCCC(=O)N[C@@H](C)C(=O)N[C@@H](CC(C)C)C(=O)N[C@@H](C)C(=O)N[C@@H](C)C(=O)NCC(=O)N[C@@H](CCCCN)C(=O)N[C@@H](CCCCN)C(N)=O [Pat20, C16-ALAAGKK-NH2] (Palmitoyl-ALAAGKK-NH2)	20.2
CCCCCCCCCCCCCCCC(=O)N[C@H](C(=O)N[C@H](C(=O)N[C@@H](CCC(N)=O)C(=O)N[C@@H](CCCCN)C(=O)N[C@H](C(=O)N[C@@H](CCCCN)C(N)=O)[C@@H](C)CC)[C@@H](C)CC)[C@@H](C)CC [Pat15, C16-IIQKIK-NH2] (Palmitoyl-IIQKIK-NH2)	12.6
CCCCCCCCCCCCCCCC(=O)N[C@@H](C)C(=O)N[C@@H](CCCCN)C(=O)N[C@@H](C)C(=O)N[C@H](C(=O)NCC(=O)N[C@@H](CCCCN)C(N)=O)C(C)C [Pat31, C16-AKAVGK-NH2] (Palmitoyl-AKAVGK-NH2)	19.7
